- experimentalSystem: P2X7 receptor (Rattus norvegicus, UniProt Q64663)
- Construct: rP2X7 (IC50; nM); other: rP2X7; HEK-293 cells stably transfected with P2X7 receptor, Bz-ATP at EC80, Fluo-8 NW; potency
- Sequence (Q64663 whole entry): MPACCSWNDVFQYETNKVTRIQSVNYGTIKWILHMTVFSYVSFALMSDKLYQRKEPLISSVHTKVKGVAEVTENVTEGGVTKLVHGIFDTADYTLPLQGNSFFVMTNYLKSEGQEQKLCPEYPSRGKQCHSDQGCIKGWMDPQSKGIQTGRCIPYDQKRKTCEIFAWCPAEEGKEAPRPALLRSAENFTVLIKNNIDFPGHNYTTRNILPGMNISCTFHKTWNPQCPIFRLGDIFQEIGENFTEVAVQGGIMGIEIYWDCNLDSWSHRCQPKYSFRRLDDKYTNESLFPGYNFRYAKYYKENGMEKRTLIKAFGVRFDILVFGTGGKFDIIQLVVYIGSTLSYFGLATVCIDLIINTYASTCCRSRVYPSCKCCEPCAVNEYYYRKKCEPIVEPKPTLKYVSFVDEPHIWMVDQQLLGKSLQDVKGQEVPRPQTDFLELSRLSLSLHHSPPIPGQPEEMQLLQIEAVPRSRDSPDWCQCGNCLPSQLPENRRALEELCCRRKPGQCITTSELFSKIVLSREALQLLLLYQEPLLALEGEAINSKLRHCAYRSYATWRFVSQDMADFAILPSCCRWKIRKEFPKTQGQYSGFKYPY
- procedureText: Screen Quest Fluo-8 No Wash Calcium Assay (Bz-ATP evoked Ca2+ influx, FLIPR)
- Type: cell-based
- cond: rP2X7; HEK-293 cells stably transfected with P2X7 receptor, Bz-ATP at EC80, Fluo-8 NW; potency ranges A-D
Kindly supply the reported IC50 values for the records listed here.

Here's what some known entries look like.
O=c1onc(CC2CCCCC2)n1Cc1c(F)cccc1Cl: < 200 nM
Cc1ncsc1Cn1c(Cc2c(F)cccc2Cl)noc1=O: > 10000 nM

Can you give me IC50 for all of these, one by one?
1. O=c1onc(CC2CCC(F)(F)CC2)n1Cc1cccc(C(F)(F)F)c1Cl
2. O=c1onc(Cc2ccc(Cl)cc2Cl)n1CC1CCCCC1
3. O=c1onc(Cc2c(F)cccc2Cl)n1CC1CCCCCC1

1. 1000 to 10000 nM
2. 200 to 1000 nM
3. < 200 nM

Can you give me IC50 for all of these, one by one?
1. CC(c1c(F)cccc1Cl)c1noc(=O)n1Cc1ccc(F)cc1 (stereo not shown)
2. O=c1snc(CC2CCC(F)(F)CC2)n1Cc1c(F)cccc1Cl
3. O=c1onc(Cc2ccc(F)cc2)n1Cc1ccc(F)cc1
4. O=c1onc(Cc2ccccc2F)n1CC1CCCCC1
5. COc1cc(Cn2c(Cc3ccc(F)cc3)noc2=O)cc(OC)c1

["> 10000 nM", "< 200 nM", "> 10000 nM", "< 200 nM", "> 10000 nM"]

###

Kindly supply the reported IC50 values for the records listed here.
- experimentalSystem: P2X7 receptor (Rattus norvegicus)
- Construct: rP2X7 (IC50; nM); other: rP2X7; HEK-293 cells stably transfected with P2X7 receptor, Bz-ATP at EC80, Fluo-8 NW; potency
- procedureText: Screen Quest Fluo-8 No Wash Calcium Assay (Bz-ATP evoked Ca2+ influx, FLIPR)
- Format: cell-based
- cond: rP2X7; HEK-293 cells stably transfected with P2X7 receptor, Bz-ATP at EC80, Fluo-8 NW; potency ranges A-D

Here's what some known entries look like.
O=c1onc(Cc2ccccc2)n1CC1CCC(F)(F)CC1 [Example 161]: 200 to 1000 nM
O=c1onc(CC2CCC(F)(F)CC2)n1Cc1c(F)cccc1Cl [Example 132]: < 200 nM
O=c1onc(Cc2ccccc2Cl)n1Cc1ccc(F)cc1 [Example 76]: 200 to 1000 nM
COc1ccc(Cn2c(Cc3c(F)cccc3Cl)noc2=O)cc1 [Example 68]: > 10000 nM
CCOCn1c(Cc2c(F)cccc2Cl)noc1=O [Example 101]: > 10000 nM

Can you give me IC50 for all of these, one by one?
1. O=c1onc(Cc2c(F)cccc2Cl)n1CC1CCC(F)(F)C1 (single isomer, unassigned) [Example 149]
2. CC(C)Cn1c(Cc2c(F)cccc2Cl)noc1=O [Example 178]
3. O=c1onc(CN2CCOc3ccccc32)n1Cc1c(F)cccc1Cl [Example 229]
4. O=c1onc(CC2CCC(F)(F)CC2)n1Cc1ncc(F)cn1 [Example 190]
5. Cc1nnc(Cn2c(Cc3c(F)cccc3Cl)noc2=O)o1 [Example 41]
6. O=c1onc(Cc2c(F)cccc2Cl)n1CC1CCCCC1(F)F (stereo not shown) [Example 97]
7. O=c1onc(CN2CCC(F)(F)CC2)n1Cc1ccc(F)cc1 [Example 221]

["< 200 nM", "> 10000 nM", "1000 to 10000 nM", "> 10000 nM", "> 10000 nM", "< 200 nM", "1000 to 10000 nM"]

Can you give me IC50 for all of these, one by one?
1. CC(C)(c1c(F)cccc1Cl)c1noc(=O)n1CC1CCCCC1 [Example 121]
2. O=c1onc(Cc2cccc(C(F)(F)F)c2Cl)n1CC1CCCCC1 [Example 113]
3. O=c1onc(CC2CCC(F)(F)CC2)n1Cc1ccno1 [Example 199]
4. O=c1onc(Cc2ccc(F)cc2F)n1Cc1ccc(F)cc1 [Example 80]

1. > 10000 nM
2. 1000 to 10000 nM
3. 1000 to 10000 nM
4. 1000 to 10000 nM

Can you give me IC50 for all of these, one by one?
1. O=c1onc(C(O)c2cccc(Cl)c2Cl)n1Cc1c(F)cccc1Cl (stereo not shown) [Example 138]
2. O=c1onc(Cc2ccncc2)n1CC1CCCCC1 [Example 111]

1000 to 10000 nM
1000 to 10000 nM
